- Tested on: U-251
- assay details: NCI tumour cell line growth inhibition, 48 h
Activity calls are given as the source filed them. No stated cut-off is given here; in the data, active = GI50 up to about 1.1 µM and inactive = higher.
The reply should be one of these categories: TRUE = active, FALSE = inactive

Known results for compounds:
> print(dat)
                                   compound  class.name
1                  NNC(=S)N1CCN(C(=S)NN)CC1       FALSE
2          NNc1nnc(CCCCCCCCc2nnc(NN)n2N)n1N       FALSE
3         Cc1ccnc2nc(-c3cccc(Cl)c3)cc(O)c12        TRUE
4  Cc1cc(O)c(C(C)C)cc1NC(=O)Nc1cccc2ccccc12       FALSE

Per the records of this test, what outcome belongs to "c1ccc(COc2ccc3[nH]c4c5c6ccccc6nc-5c[nH]c4c3c2)cc1" ?
FALSE

###

- Tested on: UACC-257
- assay details: NCI tumour cell line growth inhibition, 48 h
The source made the active and inactive calls. Cut-off read from the data, not from the text of the source: active = GI50 up to about 1.1 µM and inactive = higher.
Each record here notes measured GI50.

Illustrative cases are given below, each with its answer.
> print(dat)
                                   molecule  recorded.metric           meas.value
1                      c1ccc(CCN2CCOCC2)nc1             GI50  > 100 µM (inactive)
2  CC(C)NC(=O)OCc1c(COC(=O)NC(C)C)n(C)c2c1ccc1cc(Cl)c(Cl)cc12             GI50   15.7 µM (inactive)
3  CC(=C/c1ccccc1)/C=C1/NC(=S)N(/C=C2\C(=O)Oc3ccccc3C2=O)C1=O             GI50   66.7 µM (inactive)

Please report the recorded GI50 for "N=c1oc2ccc3ccccc3c2cc1-c1nc(O)c2ccccc2n1" .
42.5 µM (inactive)

Same read-out for O=C(O)C1CC(c2ccc(F)cc2)=Nc2ccc(F)cc2S1 (stereo unspecified) ?
> 100 µM (inactive)

Same for "C#C[C@]1(O)CCCC2=CC(=O)CC[C@@]21C"
> 100 µM (inactive)

###

GI50: recorded values
- System: CAKI-1
- assay details: NCI tumour cell line growth inhibition, 48 h
Activity calls are given as the source filed them. Cut-off read from the data, not from the text of the source: active = GI50 up to about 1.1 µM and inactive = higher.

The examples below pair each entry with its known result.
> print(dat)
                                   compound          meas.value
1  c1ccc2c(c1)CCN1CCc3ccccc3C1C2 (stereo not given)  47.1 µM (inactive)
2  COc1cc(C#CC(=O)OC/C=C/c2ccc3c(c2)OCO3)cc(OC)c1OC  22.1 µM (inactive)

Request - read-out GI50 | tested on CAKI-1 | compound "CC(=O)n1c(=O)c2cc3c(=O)n(-c4cccc(C#N)c4)c(=O)c3cc2c1=O"
> 100 µM (inactive)

Now this one: "O=[N+]([O-])c1ccc(-c2ccc(C3=Nn4c(CNc5ccccc5Cl)nnc4SC3)o2)cc1"
> 100 µM (inactive)

Follow-up entry: "C[C@]12CC[C@H]3[C@@H](CC=C4C[C@@H](O)CC[C@@]43C)[C@@H]1C/C(=C/c1ccccc1)[C@@H]2O"
30.3 µM (inactive)

Would you kindly repeat that for "COc1cc2c(/C=C3/C(=O)Nc4ccc(Cl)cc43)c(Cl)n(Cc3ccccc3)c2cc1C" ?
2.97 µM (inactive)

###

- Tested on: SN12C
- assay details: NCI tumour cell line growth inhibition, 48 h
Calls of active or inactive are those of the source. Cut-off read from the data, not from the text of the source: active = GI50 up to about 1.1 µM and inactive = higher.
Answer with one of the outcomes TRUE = active, FALSE = inactive

compound	class name
Cn1c(O)c(C(=O)Nc2cccs2)c(=O)[nH]c1=S	FALSE

Call for entry "CC(C)C(=O)C(C)(C)CCc1ccccn1" :
FALSE

Lookup CC1=NN(c2ccccc2)C(=O)C1C(=O)C(=O)Nc1ccc(C)cc1C (stereo not given)
FALSE

Param item: "O=C(Nc1ccc2nc(-c3ccccc3)cn2c1)Oc1ccccc1"
FALSE

Record: "O=C(NNc1cn[nH]c(=O)c1Cl)/C(=C/c1ccc2c(c1)OCO2)NC(=O)c1ccccc1"
FALSE

###

- Test system: CCRF-CEM
- assay details: NCI tumour cell line growth inhibition, 48 h
Active and inactive are the calls of the source. Rule as the data show it: active = GI50 up to about 1.1 µM and inactive = higher.
Entry note: the call must match one of active, inactive

compound	class name
CN(CCCCN1CCCC1)CCCCN(C)C(=O)Cc1ccc(Cl)c(Cl)c1	inactive
CC1(C)O[C@@H](CP(c2cccc3ccccc23)c2cccc3ccccc23)[C@H](CP(c2cccc3ccccc23)c2cccc3ccccc23)O1	inactive
CC(=O)O[C@@]12CO[C@@H]1C[C@H](O)[C@@]1(C)C(=O)[C@H](O)C3=C(C)[C@@H](OC(=O)[C@H](O)[C@@H](NC(=O)OC(C)(C)C)c4ccccc4)C[C@@](O)([C@@H](OC(=O)c4ccccc4)[C@H]21)C3(C)C	active
O=C1/C(=C\c2ccc([N+](=O)[O-])cc2)N(S(=O)(=O)c2ccccc2)c2ncccc21	inactive
NC1CC(=O)c2cc(Cl)sc21 (stereo not drawn)	inactive
Cc1cc2c(=O)cc(-c3ccncc3)oc2c(C(=O)O)c1C	inactive
CCOC(=O)c1c(C)[nH]c2c1c(CN(C)C)c(O)c1nc(C)c(C)nc12	inactive

Here is another compound to look at.
What call does the record list for "COc1cc2c(/C=C3/C(=O)Nc4ccc(Cl)cc43)c(Cl)n(Cc3ccccc3)c2cc1C" ?
inactive

###

- Tested on: MDA-MB-435
- assay details: NCI tumour cell line growth inhibition, 48 h
Calls of active or inactive are those of the source. No stated cut-off is given here; in the data, active = GI50 up to about 1.1 µM and inactive = higher.
Choose the fitting class; nothing outside class 1 for active, class 0 for inactive is accepted.

Record excerpt, results attached:
compound	class name
Cc1cc(S(=O)(=O)N=C2NCC(C)(C)CN2)c(S)cc1Cl	class 0
O=c1oc2ccc3ccccc3c2cc1-c1cn2ccccc2n1	class 0
COc1ccc(/C=C\c2cc(OC)c(OC)c(OC)c2)cc1OC	class 1
CC1=C(C)C(=O)C(C2=C(C3=CC(=O)C(C)=C(C)C3=O)C(=O)C(C)=C(C)C2=O)=CC1=O	class 0

Recorded call for COc1c2c(cc3c1C(=O)c1c(O)cccc1C3=O)CC(O)CC2 (stereo not given) ?
class 0

Param item: "CCOC(=O)/C=C(/C(=O)OCC)n1cc(C)c(=O)[nH]c1=O"
class 0

Okay, and "Cc1c2c(c(C)n1-c1ccccc1)C(=O)N(CCN1CCN(c3cccc(C(F)(F)F)c3)CC1)C2=O" ?
class 0

"O=C(/C=C(\C(=O)c1cccs1)c1cccs1)c1ccc(C(=O)/C=C(\C(=O)c2cccs2)c2cccs2)cc1" , same question.
class 0

What about "O=C(N/C(=C/c1ccc(Cl)cc1Cl)c1nc2ccccc2s1)c1ccccc1" ?
class 0

Request: "N=C1C=C(N)C(=O)c2[nH]c(=O)ccc21"
class 1

Also need "COc1cc(CSc2ccc(O)cc2)cc(OC)c1OC" , thanks.
class 0

Next entry: "COC(=O)CCc1cc(OC)c2oc(-c3ccc(OC)c(OC)c3)c(CO)c2c1"
class 0

Now consider "CNC(=O)CCNC(=O)CCC(=O)OC" and answer again.
class 0

// next record "CN(C)C(n1cc2c(c1)-c1ccc(Cl)cc1C(c1ccccc1F)=NC2)n1cc2c(c1)-c1ccc(Cl)cc1C(c1ccccc1F)=NC2"
class 0

For CC(C)(C)OC(=O)NCC(=O)NC1c2ccsc2/C(=N/O)[C@H]1O (stereo not given in full) then?
class 0

// same read-out, input: "CCCCn1c2c(n(CCCC)c1=S)-c1c(n(CCCC)c(=S)n1CCCC)SSc1c(n(CCCC)c(=S)n1CCCC)-c1c(n(CCCC)c(=S)n1CCCC)SSc1c(n(CCCC)c(=S)n1CCCC)-c1c(n(CCCC)c(=S)n1CCCC)SS2"
class 0

Quick one: c1ccc(C2SCC3=Nc4ccccc4CN32)cc1 (stereo not given)
class 0

What would you report for "O=C(NO)NCCCl" ?
class 0

Entry "O=C(OCc1ccccc1CN1CCOCC1)c1cccc(Br)c1" please
class 0

Same question, "O=C1/C(=C\c2ccc([N+](=O)[O-])cc2)N(S(=O)(=O)c2ccccc2)c2ncccc21" this time
class 0

###

- Test system: DLD-1
- assay details: NCI tumour cell line growth inhibition, 48 h
Active and inactive are the calls of the source. Cut-off read from the data, not from the text of the source: active = GI50 up to about 1.1 µM and inactive = higher.
Could you please pick one outcome from this set? label 1 for active, label 0 for inactive

Field: example entries. Status: answers known.
> print(dat)
                                   compound  class.name
1  COc1ccc(NC(=O)CCc2cc(-c3ccc(O)c(OC)c3)nc(NC#N)n2)cc1     label 0
2  Cn1c(=O)c2c3ccccc3c(C(=O)c3ccccc3)n2c2ccccc21     label 0

What classification did "CCCCCCCCCC(=O)N[C@H]1CCc2cc(OC)c(OC)c(OC)c2-c2ccc(SC)c(=O)cc21" end up with in this test?
label 1

Same read-out for COc1ccc(NC(=O)C2C(=O)N(c3ccc(OC)cc3)C(=O)/C2=N/O)cc1 (stereo not given) ?
label 0

What about this compound? "COc1ccc(-c2cc(=O)c3c(O)cccc3o2)c(OC)c1OC"
label 0
